Where do the numbers come from? From BigSolDB 2.1.

- condition.description: in propylene glycol, 303.15 K
metric: solubility (mole fraction)
Give bare numbers.

What value of solubility (mole fraction) has been reported for the following compound? c1ccc(-c2ccc(C(c3ccccc3)n3ccnc3)cc2)cc1 (stereo unspecified)
0.00707

###

- condition.description: in methanol, 308.15 K
metric: solubility (mole fraction)
Answers are plain numbers.

What value of solubility (mole fraction) has been reported for the following compound? c1ccc(-c2ccc(C(c3ccccc3)n3ccnc3)cc2)cc1 (stereo unspecified)
0.0106

###

- condition.description: in isopropanol, 318.15 K
metric: solubility (mole fraction)
Give bare numbers.

What value of solubility (mole fraction) has been reported for the following molecule? c1ccc(-c2ccc(C(c3ccccc3)n3ccnc3)cc2)cc1 (stereo unspecified)
0.0123
